Test system: HEK293T-Gα16gust44 cells transfected with empty vector (mock)
Assay: Calcium imaging assay (FLIPR), empty vector control (mock)
Format: cell-based
Conditions: Mock, sheet TAS2R4; conc. 0,003 mM
Δ F/F by entry:

Answered cases to consult:
# given_smiles, Δ F/F
rows = [
    ("C[C@H](CCC(=O)NCCS(=O)(=O)O)[C@H]1CC[C@H]2[C@@H]3[C@H](O)C[C@@H]4C[C@H](O)CC[C@]4(C)[C@H]3C[C@H](O)[C@]12C", -0.0007144),
    ("C[C@H](CCC(=O)NCC(=O)O)[C@H]1CC[C@H]2[C@@H]3[C@H](O)C[C@@H]4C[C@H](O)CC[C@]4(C)[C@H]3C[C@H](O)[C@]12C", "-6.081e-5"),
    ("C[C@H](CCC(=O)O)[C@H]1CC[C@H]2[C@@H]3CC[C@@H]4C[C@H](O)CC[C@]4(C)[C@H]3C[C@H](O)[C@]12C", 0.0001746),
    ("C[C@H](CCC(=O)O)[C@H]1CC[C@H]2[C@@H]3[C@@H](O)C[C@@H]4C[C@H](O)CC[C@]4(C)[C@H]3CC[C@]12C", -0.0007234),
]

Please look up its Δ F/F: C[C@H](CCC(=O)O)[C@H]1CC[C@H]2[C@@H]3[C@H](O)C[C@@H]4C[C@H](O)CC[C@]4(C)[C@H]3C[C@H](O)[C@]12C -0.001078

* * *

Molecular target: mouse Tas2r108 (Mus musculus, UniProt Q9JKT3)
Construct: expressed in transfected cells; host or cells: HEK293T-Gα16gust44
Sequence (Q9JKT3 whole entry): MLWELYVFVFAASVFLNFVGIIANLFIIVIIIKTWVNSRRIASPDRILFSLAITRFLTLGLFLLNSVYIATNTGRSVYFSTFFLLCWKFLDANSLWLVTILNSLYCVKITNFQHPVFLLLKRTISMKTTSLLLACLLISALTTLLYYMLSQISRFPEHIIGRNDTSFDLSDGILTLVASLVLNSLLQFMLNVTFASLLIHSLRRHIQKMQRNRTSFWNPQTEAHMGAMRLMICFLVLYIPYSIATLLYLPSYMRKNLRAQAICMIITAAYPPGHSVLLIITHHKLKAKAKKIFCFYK
Assay: Calcium imaging assay (FLIPR), HEK293T-Gα16gust44 cells transfected with mouse Tas2r108
Type: cell-based
Details: Time 239.562 s
Listed here: items and their measured RLU.
The figure you give is taken to be in RLU; do not add the unit.

Past entries and their recorded results:
# given_smiles, reading_unit, RLU
measured = [
    ("C[C@H](CCC(=O)NCCS(=O)(=O)O)[C@H]1CC[C@H]2[C@@H]3[C@H](O)C[C@@H]4C[C@H](O)CC[C@]4(C)[C@H]3C[C@H](O)[C@]12C", "RLU", 236.142),
    ("C[C@H](CCC(=O)O)[C@H]1CC[C@H]2[C@@H]3CC[C@@H]4C[C@H](O)CC[C@]4(C)[C@H]3C[C@H](O)[C@]12C", "RLU", 493.745),
    ("C[C@H](CCC(=O)NCC(=O)O)[C@H]1CC[C@H]2[C@@H]3[C@H](O)C[C@@H]4C[C@H](O)CC[C@]4(C)[C@H]3C[C@H](O)[C@]12C", "RLU", 147.809),
]

Consider now this further compound.
Item C[C@H](CCC(=O)O)[C@H]1CC[C@H]2[C@@H]3[C@H](O)C[C@@H]4C[C@H](O)CC[C@]4(C)[C@H]3C[C@H](O)[C@]12C with mouse Tas2r108 (Mus musculus, UniProt Q9JKT3) - RLU? 73.7327

* * *

Readings of RLU for the listed molecules
Biological target: mouse Tas2r105 (Mus musculus)
Construct: expressed in transfected cells; host or cells: HEK293T-Gα16gust44
Sequence (Q9JKT4 1-300): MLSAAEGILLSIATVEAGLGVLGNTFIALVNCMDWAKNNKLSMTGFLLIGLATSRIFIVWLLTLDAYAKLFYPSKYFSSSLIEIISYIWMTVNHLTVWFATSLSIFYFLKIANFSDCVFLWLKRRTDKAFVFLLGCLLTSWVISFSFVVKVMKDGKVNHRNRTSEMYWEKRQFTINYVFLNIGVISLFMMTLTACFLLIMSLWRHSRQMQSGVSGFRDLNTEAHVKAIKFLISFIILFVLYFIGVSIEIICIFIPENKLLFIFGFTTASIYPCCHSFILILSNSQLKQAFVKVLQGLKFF
Assay: Calcium imaging assay (FLIPR), HEK293T-Gα16gust44 cells transfected with mouse Tas2r105
Assay type: cell-based
Conditions: Time 58.781 s
The figure you give is taken to be in RLU; do not add the unit.

# given_smiles, RLU (RLU)
data = [
    ("C[C@H](CCC(=O)O)[C@H]1CC[C@H]2[C@@H]3[C@H](O)C[C@@H]4C[C@H](O)CC[C@]4(C)[C@H]3C[C@H](O)[C@]12C", 284.724),
    ("C[C@H](CCC(=O)O)[C@H]1CC[C@H]2[C@@H]3CC[C@@H]4C[C@H](O)CC[C@]4(C)[C@H]3C[C@H](O)[C@]12C", 38.5167),
    ("C[C@H](CCC(=O)NCC(=O)O)[C@H]1CC[C@H]2[C@@H]3[C@H](O)C[C@@H]4C[C@H](O)CC[C@]4(C)[C@H]3C[C@H](O)[C@]12C", 350.668),
]

# input for lookup
Requested field: RLU. Item: C[C@H](CCC(=O)O)[C@H]1CC[C@H]2[C@@H]3CC[C@@H]4C[C@H](O)CC[C@]4(C)[C@H]3CC[C@]12C 82.9428

* * *

Biological target: human TAS2R1 (Homo sapiens)
Construct: expressed in transfected cells; host or cells: HEK293T-Gα16gust44
Sequence (Q9NYW7 1-299): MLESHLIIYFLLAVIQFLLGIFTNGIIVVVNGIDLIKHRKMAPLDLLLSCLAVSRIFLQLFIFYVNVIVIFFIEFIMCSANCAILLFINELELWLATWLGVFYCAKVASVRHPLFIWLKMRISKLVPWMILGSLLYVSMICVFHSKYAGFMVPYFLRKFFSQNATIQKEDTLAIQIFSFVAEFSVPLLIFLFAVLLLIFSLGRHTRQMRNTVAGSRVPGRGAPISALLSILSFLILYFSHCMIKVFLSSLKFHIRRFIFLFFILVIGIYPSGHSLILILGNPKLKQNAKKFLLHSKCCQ
Assay: Calcium imaging assay (FLIPR), HEK293T-Gα16gust44 cells transfected with human TAS2R1
Format: cell-based
Settings: Time 28.796 s
Quick reference for RLU among some molecules
I only need the number, in RLU, no unit after it.

See these solved cases before continuing.
# given_smiles, reading_unit, readout_value
records = [
    ("C[C@H](CCC(=O)O)[C@H]1CC[C@H]2[C@@H]3[C@H](O)C[C@@H]4C[C@H](O)CC[C@]4(C)[C@H]3CC[C@]12C", "RLU", 430.728),
    ("C[C@H](CCC(=O)O)[C@H]1CC[C@H]2[C@@H]3CC[C@@H]4C[C@H](O)CC[C@]4(C)[C@H]3CC[C@]12C", "RLU", 298.948),
    ("C[C@H](CCC(=O)O)[C@H]1CC[C@H]2[C@@H]3[C@@H](O)C[C@@H]4C[C@H](O)CC[C@]4(C)[C@H]3CC[C@]12C", "RLU", 332.008),
]

Item C[C@H](CCC(=O)O)[C@H]1CC[C@H]2[C@@H]3[C@H](O)C[C@@H]4C[C@H](O)CC[C@]4(C)[C@H]3C[C@H](O)[C@]12C has what recorded RLU? 273.224

* * *

Target: mouse Tas2r105 (Mus musculus, UniProt Q9JKT4)
Construct: expressed in transfected cells; host or cells: HEK293T-Gα16gust44
Sequence (Q9JKT4 1-300): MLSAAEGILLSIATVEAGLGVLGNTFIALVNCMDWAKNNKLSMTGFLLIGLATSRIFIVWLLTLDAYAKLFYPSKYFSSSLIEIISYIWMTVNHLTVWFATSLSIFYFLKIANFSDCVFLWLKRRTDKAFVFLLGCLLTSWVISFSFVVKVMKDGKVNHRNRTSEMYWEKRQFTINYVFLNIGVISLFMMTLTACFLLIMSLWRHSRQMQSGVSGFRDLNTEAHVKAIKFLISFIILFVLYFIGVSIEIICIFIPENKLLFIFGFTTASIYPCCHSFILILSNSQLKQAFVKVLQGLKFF
Assay: Calcium imaging assay (FLIPR), HEK293T-Gα16gust44 cells transfected with mouse Tas2r105
Format: cell-based
Conditions: Time 40.781 s
value_type: RLU (RLU)
The reply should contain only the number, in RLU.

# given_smiles, value_type, readout_value
records = [
    ("C[C@H](CCC(=O)NCC(=O)O)[C@H]1CC[C@H]2[C@@H]3[C@H](O)C[C@@H]4C[C@H](O)CC[C@]4(C)[C@H]3C[C@H](O)[C@]12C", "RLU", 113.511),
    ("C[C@H](CCC(=O)O)[C@H]1CC[C@H]2[C@@H]3[C@H](O)C[C@@H]4C[C@H](O)CC[C@]4(C)[C@H]3C[C@H](O)[C@]12C", "RLU", 115.541),
    ("C[C@H](CCC(=O)O)[C@H]1CC[C@H]2[C@@H]3CC[C@@H]4C[C@H](O)CC[C@]4(C)[C@H]3C[C@H](O)[C@]12C", "RLU", 9.418),
]

# next compound below
Which measured RLU value corresponds to C[C@H](CCC(=O)O)[C@H]1CC[C@H]2[C@@H]3CC[C@@H]4C[C@H](O)CC[C@]4(C)[C@H]3CC[C@]12C ? 53.7499
